Listing: IC50 of selected molecules
# Tested On: 3CL Protease (Severe acute respiratory syndrome coronavirus 2, UniProt P0DTD1)
# Assay Name: 3CL Protease enzymatic activity assay (BPS Bioscience Assay Kit #78043-1, fluorescence)
# Format: biochemical, SARS-CoV-2
# Experimental Context: Table A; 30 min preincubation, 40 μM substrate, 4 hours at room temperature; read-out: IC50, nM (3CL Protease enzymatic activity)

{"columns": ["Molecule", "IC50"],
 "data": [
  ["Cc1ccc2[nH]c(=O)c(CC(C#N)NC(=O)[C@@H]3C4[C@H](CN3C(=O)[C@@H](Nc3nccc(C(F)(F)F)n3)C(C)(C)C)C4(C)C)cc2c1 (stereo in doubt)", "≥ 1000 nM"],
  ["CC(C)(C)[C@H](NC(=O)C(F)(F)F)C(=O)N1C[C@H]2[C@@H]([C@H]1C(=O)N[C@H](C#N)Cc1nc3ccccc3[nH]c1=O)C2(C)C", "< 50 nM"],
  ["Cc1ccc2[nH]c(=O)c(CC(C#N)NC(=O)[C@@H]3C4[C@H](CN3C(=O)[C@@H](Nc3ncc(C)s3)C(C)(C)C)C4(C)C)cc2c1 (stereo in doubt)", "100 to 250 nM"],
  ["Cc1ccc2[nH]c(=O)c(C[C@H](C#N)NC(=O)C3C4C(CN3C(=O)[C@H](NC(=O)OC(C)C)C(C)(C)C)C4(C)C)cc2c1 (stereo in doubt)", "100 to 250 nM"],
  ["CC(C)(C)[C@H](NC(=O)C(F)(F)F)C(=O)N1C[C@H]2[C@@H]([C@H]1C(=O)NC(C#N)Cc1cc3ccccc3[nH]c1=O)C2(C)C (some centres unmarked)", "< 50 nM"]
]}
